target: human V1a receptor (Homo sapiens, UniProt P37288); construct: expressed in transfected cells; host or cells: CHO K1 (ATCC), also stably transfected with a modified aequorin; assay: Cellular in vitro assay for determining vasopressin receptor activity, V1a receptor cell line (CHO, aequorin luminescence); assay type: cell-based; details: selectivity ratio IC50 hV2 / IC50 hV1a
Sequence (P37288 whole entry): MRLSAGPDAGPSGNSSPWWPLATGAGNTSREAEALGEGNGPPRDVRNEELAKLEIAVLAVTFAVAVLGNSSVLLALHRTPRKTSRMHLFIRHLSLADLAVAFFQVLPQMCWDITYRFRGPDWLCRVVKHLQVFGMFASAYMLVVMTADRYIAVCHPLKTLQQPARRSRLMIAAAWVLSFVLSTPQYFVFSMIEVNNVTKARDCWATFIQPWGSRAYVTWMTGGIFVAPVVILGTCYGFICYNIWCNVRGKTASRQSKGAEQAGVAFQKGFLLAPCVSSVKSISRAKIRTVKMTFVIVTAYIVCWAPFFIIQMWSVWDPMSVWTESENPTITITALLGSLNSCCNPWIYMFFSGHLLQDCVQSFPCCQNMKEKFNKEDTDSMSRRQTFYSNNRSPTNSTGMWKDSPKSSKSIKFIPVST
measurementLabel: ratio IC50 hV2/hV1a

Example cases with answers are listed next.
[[record]]
compound = "O=C(NCCN1CCNC1=O)c1ccccc1-n1cnc(Cn2nc(-c3ccc(Cl)cc3)n(C[C@H](O)C(F)(F)F)c2=O)n1 [Example 185]"
numericvalue = 199.4

[[record]]
compound = "O=C(Nc1cccnc1-n1cnc(Cn2nc(-c3ccc(Cl)cc3)n(C[C@H](O)C(F)(F)F)c2=O)n1)C1CC1(F)F (mixture of isomers) [Example 41]"
numericvalue = 64.4

[[record]]
compound = "O=C(c1ccccc1-n1cnc(Cn2nc(-c3ccc(Cl)cc3)n(C[C@H](O)C(F)(F)F)c2=O)n1)N1CCCO1 [Example 285]"
numericvalue = 231.6


a = NC(=O)C1CCCN1C(=O)c1ncccc1-n1cnc(Cn2nc(-c3ccc(Cl)cc3)n(C[C@@H](O)C(F)(F)F)c2=O)n1 (mixture of isomers) [Example 467]
b = Nc1ccc(NC(=O)c2ccccc2-n2cnc(Cn3nc(-c4ccc(Cl)cc4)n(C[C@H](O)C(F)(F)F)c3=O)n2)cc1 [Example 205]
Which value of ratio IC50 hV2/hV1a is smaller, the one for a or the one for b ? Indicate which entry you chose by stating its label.
a
(a: 51.6, b: 321.7)

###

target: UniProt:P37288; experiment: Cellular in vitro assay for determining vasopressin receptor activity, V1a receptor cell line (CHO, aequorin luminescence); details: CHO cell line transfected with human V1a receptor; [Arg]-vasopressin at EC50 concentration; read-out: IC50 hV1a
pIC50: −log10 of the molar value.
measurementLabel: pIC50

[[record]]
smilestext = "NC(=O)[C@@H]1CCCN1c1ccncc1-n1cnc(Cn2nc(-c3ccc(Cl)cc3)n(C[C@H](O)C(F)(F)F)c2=O)n1"
targetdesc = "UniProt:P37288"
measurementlabel = "pIC50"
numericvalue = 6.15


I = CCN(C(=O)c1ccccc1-n1cnc(Cn2nc(-c3ccc(Cl)cc3)n(C[C@H](O)C(F)(F)F)c2=O)n1)C(C)C
II = O=C1CN(C(=O)c2nc(Cn3nc(-c4ccc(Cl)cc4)n(C[C@H](O)C(F)(F)F)c3=O)nn2-c2cnccc2C(=O)NCCC(F)(F)F)CCN1
Which value of pIC50 is smaller, the one for I or the one for II ? Indicate which entry you chose by stating its label.
II
(II: 5.78, I: 8.33)

###

Biological target: human V2 receptor (Homo sapiens)
Construct: expressed in transfected cells; host or cells: CHO K1 (ATCC) expressing firefly luciferase under a CRE-responsive promoter
Sequence (P30518 whole entry): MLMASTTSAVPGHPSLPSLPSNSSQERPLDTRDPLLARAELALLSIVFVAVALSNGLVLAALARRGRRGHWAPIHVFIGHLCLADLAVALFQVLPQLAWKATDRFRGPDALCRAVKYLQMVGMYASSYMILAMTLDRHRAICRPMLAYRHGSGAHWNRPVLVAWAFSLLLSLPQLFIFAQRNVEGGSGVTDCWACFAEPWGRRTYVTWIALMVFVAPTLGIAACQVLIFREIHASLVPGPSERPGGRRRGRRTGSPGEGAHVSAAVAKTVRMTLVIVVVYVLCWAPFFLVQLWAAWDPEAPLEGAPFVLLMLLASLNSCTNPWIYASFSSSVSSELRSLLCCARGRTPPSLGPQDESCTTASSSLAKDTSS
Experiment: Cellular in vitro assay for determining vasopressin receptor activity, V2 receptor cell line (CHO, CRE-luciferase)
Assay type: cell-based
Settings: CHO cell line transfected with human V2 receptor; [Arg8]-vasopressin at EC50 concentration, 3 hours; read-out: IC50 hV2
Description: B-1. Cellular In Vitro Assay for Determining Vasopressin Receptor Activity The identification of agonists and antagonists of the V1a and V2 vasopressin receptors from humans, rats and dogs as well as the quantification of the activity of the compounds of the invention is carried out using recombinant cell lines. […] The bioluminescence of the cell lines is detected using a suitable luminometer [Milligan G, Marshall F, Rees S, Trends in Pharmacological Sciences 17, 235-237 (1996)]. […]
pIC50: −log10 of the molar value.
measurementLabel: pIC50

Example cases with answers are listed next.
[[record]]
compound = "NC(=O)[C@@H]1CCCN1c1ncccc1-n1cnc(Cn2nc(-c3ccc(Cl)cc3)n(C[C@H](O)C(F)(F)F)c2=O)n1"
targetdesc = "human V2 receptor (Homo sapiens)"
measurementlabel = "pIC50"
numericvalue = 6.36

[[record]]
compound = "Cn1nccc1CNC(=O)c1ccccc1-n1cnc(Cn2nc(-c3ccc(Cl)cc3)n(C[C@H](O)C(F)(F)F)c2=O)n1"
targetdesc = "human V2 receptor (Homo sapiens)"
measurementlabel = "pIC50"
numericvalue = 6.08

[[record]]
compound = "CN(C(=O)c1ccccc1-n1cnc(Cn2nc(-c3ccc(Cl)cc3)n(C[C@H](O)C(F)(F)F)c2=O)n1)C1CCCCC1"
targetdesc = "human V2 receptor (Homo sapiens)"
measurementlabel = "pIC50"
numericvalue = 5.72

[[record]]
compound = "O=C(NC1CC1)c1ccccc1-n1cnc(Cn2nc(-c3ccc(Cl)cc3)n(C[C@H](O)C(F)(F)F)c2=O)n1"
targetdesc = "human V2 receptor (Homo sapiens)"
measurementlabel = "pIC50"
numericvalue = 6.41


A = CN(CC1CC1)C(=O)c1cccc(Cl)c1-n1cnc(Cn2nc(-c3ccc(Cl)cc3)n(C[C@H](O)C(F)(F)F)c2=O)n1
B = CCn1ccc(C(=O)Nc2ncccc2-n2cnc(Cn3nc(-c4ccc(Cl)cc4)n(C[C@H](O)C(F)(F)F)c3=O)n2)n1
C = O=C(Nc1ncccc1-n1cnc(Cn2nc(-c3ccc(Cl)cc3)n(C[C@H](O)C(F)(F)F)c2=O)n1)C1(C(F)(F)F)CC1
Order the records by pIC50, with each subsequent value no larger than the one before. Give the labels in the order requested.
B, C, A

P = O=C(Nc1cccnc1-n1cnc(Cn2nc(-c3ccc(Cl)cc3)n(C[C@H](O)C(F)(F)F)c2=O)n1)C1CCS(=O)(=O)C1 (single isomer, unassigned) [Example 51]
Q = CC1(C)COCCN1C(=O)c1ccccc1-n1cnc(Cn2nc(-c3ccc(Cl)cc3)n(C[C@H](O)C(F)(F)F)c2=O)n1
R = O=C(Nc1ncccc1-n1cnc(Cn2nc(-c3ccc(Cl)cc3)n(C[C@H](O)C(F)(F)F)c2=O)n1)C1CCOCC1
Order the records by pIC50, with each subsequent value no larger than the one before. Give the labels in the order requested.
P, R, Q
(P: 6.12, R: 5.90, Q: 5.55)

a = CC1C=CC(C)N1C(=O)c1ccccc1-n1cnc(Cn2nc(-c3ccc(Cl)cc3)n(C[C@H](O)C(F)(F)F)c2=O)n1 (stereo partly shown)
b = CC(C)(N)CNC(=O)c1ccccc1-n1cnc(Cn2nc(-c3ccc(Cl)cc3)n(C[C@H](O)C(F)(F)F)c2=O)n1
Which value of pIC50 is smaller, the one for a or the one for b ? Indicate which entry you chose by stating its label.
b

Data origin: patent US11173151B2
